assaySummary: folding stability dG unfold from trypsin proteolysis; higher = more stable
Decide by folding stability dG unfold: equal to or exceeding 0.8 kcal/mol means MET, less means NOT MET.

>>> classname("SAGGSAGGMPSDTPFTITKITSVTLNDGRGTTKAVVSYPDGSLVTISSSELERLTKENPNLNLVSAGGSAGG [r6_78_JUSTAS]")
"NOT MET"
>>> classname("SAGSRTVTLTFYRPLSRPPGGAPVVREAERTVTLNLPDDTLSEEEIEALAEELRAEHPDVEVEITIDDSAGG [r19_369_JUSTAS]")
"NOT MET"
>>> classname("SAGGSAGGSMRFPPGQKIEIEEWKHNPNGGNYQVSIRFKDGKKKTFTSPEDIDRLIKAGHVKISAGGSAGGS [r12_455_TrROS]")
"NOT MET"
>>> classname("SAGEPDKPFTLTLKLLLPQSEDGTPLTPEEAEELAKEISTELGVEVEEIKITSNPEGNFVEIEVKLRGSAGG [r19_322_TrMRF]")
"MET"
>>> classname("SAGGSAGGSMTLVLEVDSVEDALAAVEALLPPGYRVTIEVEERGGRLLVTITIEPAPAPPPEESAGGSAGGS [r12_195_TrROS_Hall]")
"MET"

input: Entry SYTLEFEDITLKPVEPGTKISIPGYVKYDGVLYKVTEVTYDPEKGTITITIKVEPEGKPKTLTITIPIPPPS [r1_47_JUSTAS] : is its folding stability dG unfold no less than 0.8 kcal/mol?
output: MET

input: Entry SAGGSAGGSGSSSLLEETTDASGVRHLLTLVRLPGGKVLLVTTTVYPSGESTTTTEETDGSLLSAGGSAGGS [r12_995_JUSTAS] : is its folding stability dG unfold no less than 0.8 kcal/mol?
output: MET

input: Entry SAMKIIIKLPKNVKPIKAEELEKIPGIKVVKIEIYKGEDGVYYLLIEIEESIPPEKLKELEEKIREIAGSAG [r14_421_TrMRF] : is its folding stability dG unfold no less than 0.8 kcal/mol?
output: MET

input: Entry SAGGSAPESVKPPVVVVTLVLEFPDGRKLTIPVAHEELAEALEVALALPLALEHDTKLVKVEKANVSAGGSA [r15_140_TrMRF] : is its folding stability dG unfold no less than 0.8 kcal/mol?
output: NOT MET

input: Entry SAGGSAGGSAEPDIEVVVTPVPGPYGPLYYRVEVRIPEAGRTVFTYARLDDPEEIEGIPIESAGGSAGGSAG [r3_432_TrMRF] : is its folding stability dG unfold no less than 0.8 kcal/mol?
output: MET

input: Entry SAGGSAGGSAMTVSIPPEVITSVEYDPSTNKVTITPSDGSVKTYDVESPEEVFKANNIGPESAGGSAGGSAG [r3_34_JUSTAS] : is its folding stability dG unfold no less than 0.8 kcal/mol?
output: MET
